MEASUREMENT_NOTES: Enzyme kinetics of toddalolactone metabolism in human liver microsomes (oxidative metabolism and glucuronidation)
Type: in vitro ADME
TEST_CONDITIONS: human, liver microsomes, pH 7.4, HLMs; P450-catalyzed oxidation; P4 formation; Vmax/Km
MEASURED_METRIC: microsomal CLint
Phrase the answer as number then unit, nothing more needed.

Consider the molecule shown here: COc1cc2oc(=O)ccc2c(OC)c1C[C@@H](O)C(C)(C)O [toddalolactone] What is its recorded microsomal CLint? 0.14 µL/min/mg

###

MEASUREMENT_NOTES: Enzyme kinetics of toddalolactone metabolism in mini pig liver microsomes (oxidative metabolism and glucuronidation)
Type: in vitro ADME
TEST_CONDITIONS: pig, liver microsomes, pH 7.4; PLMs; P450-catalyzed oxidation; P4 formation; Vmax/Km
Procedure: The CYP reaction system (200 μL) consisted of 0.1 M potassium phosphate buffer (pH 7.4), an NADPH-generating system (1 mM NADPH, 10 mM G-6-P, 1 unit/mL G-6-PD, 4 mM MgCl2), and liver microsomes or recombinant human microsomes (supersomes). Each of the in vitro enzymatic assays using liver microsomes was linear with respect to incubation time and amount of protein. […] Samples were centrifuged at 18,000 g for 15 min at 4 °C and 10 μL of supernatant was analyzed using an HPLC system. […]
MEASURED_METRIC: microsomal CLint (µL/min/mg)
Numbers only, in µL/min/mg.

I am curious: what microsomal CLint value has been reported for COc1cc2oc(=O)ccc2c(OC)c1C[C@@H](O)C(C)(C)O ? 0.69

###

MEASUREMENT_NOTES: Enzyme kinetics of toddalolactone metabolism in monkey liver microsomes (oxidative metabolism and glucuronidation)
Type: in vitro ADME
TEST_CONDITIONS: monkey, liver microsomes, pH 7.4, MLMs; glucuronide metabolism; P6 formation; Vmax/Km
MEASURED_METRIC: microsomal CLint (µL/min/mg)
One number for each entry, in µL/min/mg.

Need microsomal CLint of COc1cc2oc(=O)ccc2c(OC)c1C[C@@H](O)C(C)(C)O [toddalolactone] , thanks. 1.21

###

MEASUREMENT_NOTES: Pharmacokinetics study in rats after intravenous administration
Format: in vivo
TEST_CONDITIONS: male, Sprague-Dawley, rat, intravenous 10 mg/kg, plasma, mean of six
MEASURED_METRIC: Cmax (ng/mL)
Numbers only, in ng/mL.

I'd like to know its Cmax. The compound in question is COc1cc2oc(=O)ccc2c(OC)c1C[C@@H](O)C(C)(C)O 420

###

MEASUREMENT_NOTES: Metabolic stability assessment in dog liver microsomes
Assay type: in vitro ADME
TEST_CONDITIONS: beagle, pH 7.4, DLMs, CYP incubation system, toddalolactone 20 μM, 0-90 min, read-out: half-life value (T1/2)
MEASURED_METRIC: half-life at 20 μM (h)
Numbers only, in h.

Report half-life at 20 μM for COc1cc2oc(=O)ccc2c(OC)c1C[C@@H](O)C(C)(C)O please. 8.23

###

MEASUREMENT_NOTES: Enzyme kinetics of toddalolactone metabolism in mouse liver microsomes (oxidative metabolism)
Format: in vitro ADME
TEST_CONDITIONS: pH 7.4; MOMs (mouse liver microsomes); P450-catalyzed oxidation; P2 formation; Vmax/Km
MEASURED_METRIC: microsomal CLint (µL/min/mg)
Answers are plain numbers, in µL/min/mg.

microsomal CLint lookup needed for COc1cc2oc(=O)ccc2c(OC)c1C[C@@H](O)C(C)(C)O [toddalolactone] , thanks. 1.61
